- Test system: SF-268 CNS
- Procedure text: NCI-60 one-dose screen, 48 h (100 = growth as untreated, 0 = no growth, -100 = all killed)
- Assay conditions: 10 µM unless noted
- Protocol: Cells are grown in 96 well plates and exposed to the test compound for 48 hours. Compounds are tested at a single concentration, which is 10^-5 M for most compounds. The reported endpoint is percent growth (GI% or GIPRCNT), where numbers from 0 - 100% represent growth inhibition, and numbers from -100% - 0 represent cell death. For example, a value of 40 represents 60% growth inhibition. A value of 0 means no net growth occurred over the course of the experiment. […]
The panel holds about 83,000 compounds, 20% with a hit somewhere; the sample as a whole holds those more often.
Experimental endpoint: growth (%)
The answer is to be given in %; state only the numeric part.

query: Entry CC1(C)CC[C@]2(C(=O)Nc3ccccc3)CC[C@]3(C)C(=CCC4[C@@]5(C)C[C@@H](O)[C@H](O)[C@@](C)(CO)C5CC[C@]43C)C2C1 (stereo partly drawn) has what growth?
result: 61.2

query: Need growth, item COc1ccc(/C=C/c2nc3ccccc3c(=O)n2CC(=O)Nc2ccc(Cl)cc2)cc1
result: 61.4

query: Please report the recorded growth for COc1cc(-c2ccc(/C=N/NC(=O)c3[nH]c4ccc(Br)cc4c3-c3ccccc3)o2)cc(OC)c1OC .
result: 59
